- measurement target: CCR9 (Homo sapiens, UniProt P51686)
- Sequence (P51686 1-357 isoform P51686-2): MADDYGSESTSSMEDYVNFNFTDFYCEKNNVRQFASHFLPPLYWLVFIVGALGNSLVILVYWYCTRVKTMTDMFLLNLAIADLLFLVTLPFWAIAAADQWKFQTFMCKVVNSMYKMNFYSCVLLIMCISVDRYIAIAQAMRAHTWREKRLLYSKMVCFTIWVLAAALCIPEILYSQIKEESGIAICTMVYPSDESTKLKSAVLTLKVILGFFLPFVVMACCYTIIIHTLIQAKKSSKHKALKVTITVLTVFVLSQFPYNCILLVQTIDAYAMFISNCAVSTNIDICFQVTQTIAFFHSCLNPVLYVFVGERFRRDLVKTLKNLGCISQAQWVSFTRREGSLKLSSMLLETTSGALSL
- test: cell-based
- measurement setup: pIC50 Gαo activation, HEK293T cells, stimulated with CCL25 31.6 nM, mean±SEM
endpoint: IC50 (nM)

(P) CC(C)(C)c1ccc(S(=O)(=O)Nc2ccc(Cl)cc2-c2cccnc2N)cc1
(Q) CC(C)(C)c1ccc(S(=O)(=O)Nc2ccc(Cl)cc2-c2nccnc2N)cc1
Q: Of the two listed items, which has the higher IC50? First: P Second: Q Refer to your chosen item by its label in the answer.
Result: P

----------
- measurement target: CCR9 (Homo sapiens, UniProt P51686)
- test: cell-based
- Format: cell-based
- measurement setup: IC50 β-arrestin2 recruitment, HEK293T cells, stimulated with CCL25 31.6 nM
- Sequence (P51686 whole entry, canonical isoform): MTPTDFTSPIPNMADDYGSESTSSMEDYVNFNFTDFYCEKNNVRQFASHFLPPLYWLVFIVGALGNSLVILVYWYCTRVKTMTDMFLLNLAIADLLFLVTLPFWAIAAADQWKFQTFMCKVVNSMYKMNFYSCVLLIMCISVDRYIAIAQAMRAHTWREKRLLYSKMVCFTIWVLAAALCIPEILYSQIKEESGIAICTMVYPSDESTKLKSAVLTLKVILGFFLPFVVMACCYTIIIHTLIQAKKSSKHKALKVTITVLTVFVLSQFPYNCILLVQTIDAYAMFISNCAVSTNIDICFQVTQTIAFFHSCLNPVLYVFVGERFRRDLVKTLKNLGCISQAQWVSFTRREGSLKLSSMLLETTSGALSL
pIC50: −log10 of the molar value.
endpoint: pIC50

(1) CC(C)(C)c1ccc(S(=O)(=O)Nc2ccc(Cl)cc2-c2nccnc2N)cc1 [compound 10]
(2) CC(C)(C)c1ccc(S(=O)(=O)Nc2ccc(Cl)cc2-c2cccnc2N)cc1 [compound 11]
Q: Between 1 and 2 , whose measured pIC50 reads higher? Returns: label corresponding to the selected item.
Result: 1

----------
- measurement target: CCR9 (Homo sapiens)
- test: biochemical
- Format: binding
- measurement setup: pKi NanoBRET (membranes), tracer 3a 100 nM, CCR9_Nluc membranes, mean±SEM
pKi: −log10 of the molar value.
endpoint: pKi

(P) CC(C)(C)c1ccc(S(=O)(=O)Nc2ccc(Cl)cc2-c2nccnc2N)cc1
(Q) CC(C)(C)c1ccc(S(=O)(=O)Nc2ccc(Cl)cc2-c2cccnc2N)cc1
Q: Given the two records P and Q , choose the one whose pKi value is lower. Could you answer with the label of the item you picked?
Result: Q
(Q: 7.91, P: 8.49)
